test system: U-251; assay: Cytotoxicity against human U251 cells at 10 uM after 24 hrs by MTT assay; assay type: functional, cell-based
Activity calls are given as the source filed them. The rule behind the calls is not given here.
Labels: y (active), n (inactive)

• COC(=O)[C@H](Cc1c[nH]cn1)NCc1cc(N(C)C)cc(CN[C@@H](Cc2cn(C)cn2)C(=O)OC)n1 = n
• COC(=O)[C@H](Cc1c[nH]cn1)NCc1cc(N(C)C)cc(CN[C@@H](Cc2cn(C(c3ccccc3)(c3ccccc3)c3ccccc3)cn2)C(=O)OC)n1 = y
• COC(=O)[C@H](Cc1cn(Cc2ccccc2)cn1)NCc1cc(N(C)C)cc(CN[C@@H](Cc2cn(Cc3ccccc3)cn2)C(=O)OC)n1 = n
• COC(=O)[C@H](Cc1c[nH]cn1)NCc1cc(N(C)C)cc(CN[C@@H](Cc2c[nH]cn2)C(=O)OC)n1 = n
• COC(=O)[C@H](Cc1cn(C)cn1)NCc1cc(N(C)C)cc(CN[C@@H](Cc2cn(C)cn2)C(=O)OC)n1 = n
• COC(=O)[C@H](Cc1cn(C(c2ccccc2)(c2ccccc2)c2ccccc2)cn1)NCc1cc(N(C)C)cc(CN[C@@H](Cc2cn(C(c3ccccc3)(c3ccccc3)c3ccccc3)cn2)C(=O)OC)n1 = y

###

tested on: Escherichia coli; experiment: Induction of DNA cleavage in Escherichia coli supercoiled pUC19 DNA assessed as formation of nicked form II DNA using FeSO4 at 30 uM after 1.5 hrs by agarose-gel electrophoresis
Calls of active or inactive are those of the source. The rule behind the calls is not given here.
measurement.name: Activity

- COC(=O)[C@H](Cc1c[nH]cn1)NCc1cc(N(C)C)cc(CN[C@@H](Cc2c[nH]cn2)C(=O)OC)n1: Active
- COC(=O)[C@H](Cc1c[nH]cn1)NCc1cc(N(C)C)cc(CN[C@@H](Cc2cn(C)cn2)C(=O)OC)n1: Active
- COC(=O)[C@H](Cc1c[nH]cn1)NCc1cc(N(C)C)cc(CN[C@@H](Cc2cn(C(c3ccccc3)(c3ccccc3)c3ccccc3)cn2)C(=O)OC)n1: Active
- COC(=O)[C@H](Cc1cn(Cc2ccccc2)cn1)NCc1cc(N(C)C)cc(CN[C@@H](Cc2cn(Cc3ccccc3)cn2)C(=O)OC)n1: Active
- COC(=O)[C@H](Cc1cn(C(c2ccccc2)(c2ccccc2)c2ccccc2)cn1)NCc1cc(N(C)C)cc(CN[C@@H](Cc2cn(C(c3ccccc3)(c3ccccc3)c3ccccc3)cn2)C(=O)OC)n1: Active
- COC(=O)[C@H](Cc1cn(C)cn1)NCc1cc(N(C)C)cc(CN[C@@H](Cc2cn(C)cn2)C(=O)OC)n1: Active
